# target or system: AKT3; also: test concentration or dose not given here
# conditions: ASO
These antisense oligonucleotides have a phosphorothioate backbone; sugars and methylation of C are not fully specified.
Catalogue of remaining target (mRNA or protein) (fraction of control) readings, one per entry.

>>> print(df.to_string())
   construct_sequence  target_or_system  reported_value
0  AGCTTCTGTCCATTCTTC              AKT3             ≥ 1
1  TTGGCTTTGGTCGTTCTG              AKT3             ≥ 1
2  CATCTTGAGGTTTCTCTT              AKT3             ≥ 1
3  GGAGTATCTACATGAAAT              AKT3             ≥ 1
4  GATTATAAATGTGTTTGG              AKT3             ≥ 1

// remaining target (mRNA or protein) (fraction of control) lookup, key: TTTCCTCTGGAGTATCTA ≥ 1

// remaining target (mRNA or protein) (fraction of control) lookup, key: AACTGTGTCTCATAATTT ≥ 1

// remaining target (mRNA or protein) (fraction of control) lookup, key: TTTGCATCTGAAGAGAGT 0.77

// remaining target (mRNA or protein) (fraction of control) lookup, key: AGTCTACTGCTCGGCCAT 0.21

// remaining target (mRNA or protein) (fraction of control) lookup, key: TACTCCAGAGAAGAAACT 0.85

// remaining target (mRNA or protein) (fraction of control) lookup, key: TGTTCGAGGAAATTTAAT ≥ 1

// remaining target (mRNA or protein) (fraction of control) lookup, key: AGAGAAGAAACTGTGTCT ≥ 1

// remaining target (mRNA or protein) (fraction of control) lookup, key: AACCTCCCACACATCATT 0.22
